Type: cell-based
STUDY CONDITIONS: Cell viability (%)
Procedure: For the evaluation of peptides’ cytotoxicity, the human immortalized keratinocytes (HaCaT cells), purchased from AddexBio (San Diego, CA, USA), and BEAS-2B were used. […] The purple formazan crystals were dissolved using acidified 2-propanol and a microplate reader (Infinite M200; Tecan, Salzburg, Austria) was used to measure the absorbance of each well at 570 nm. […]
Bridge positions count the residues as written; N and C are the ends. Square brackets hold non-standard residues; d marks the D form. Peptide text beside a SMILES is read from it. Pro(cis-4-guanidino) = NC(N)=N[C@@H]1CN[C@H](C(=O)O)C1; Phe(4-guanidino) = N=C(N)Nc1ccc(C[C@H](N)C(=O)O)cc1

MOLECULE	UNIT LABEL	viability at 24 h, 50 µM
CC[C@H](C)[C@H](NC(=O)[C@H](CCCNC(=N)N)NC(=O)[C@H]1CCC(=O)NCCCC[C@H](NC(=O)[C@H](Cc2ccccc2)NC(=O)[C@H](Cc2c[nH]c3ccccc23)NC(=O)[C@@H]2C[C@H](NC(=N)N)CN2C(=O)[C@@H](NC(=O)[C@@H](N)Cc2ccccc2)C(C)C)C(=O)N[C@@H](CCCCN)C(=O)N[C@@H](Cc2ccccc2)C(=O)N[C@H](CC(C)C)C(=O)N1)C(=O)N[C@@H](CC(C)C)C(N)=O [Peptide 7, FV(4-guanidino)PWF[KKFle]RIL] (H-FV[Pro(cis-4-guanidino)]WFKKF[dL][dE]RIL-NH2; lactam 6-10)	%	9
CC[C@H](C)[C@H](NC(=O)[C@H](CCCNC(=N)N)NC(=O)[C@H]1CCC(=O)NCCCC[C@H](NC(=O)[C@H](Cc2ccccc2)NC(=O)[C@H](Cc2c[nH]c3ccccc23)NC(=O)[C@@H]2CCCN2C(=O)[C@@H](NC(=O)[C@@H](N)Cc2ccc(NC(=N)N)cc2)C(C)C)C(=O)N[C@@H](CCCCN)C(=O)N[C@@H](Cc2ccccc2)C(=O)N[C@H](CC(C)C)C(=O)N1)C(=O)N[C@@H](CC(C)C)C(N)=O [Peptide 6, (p-guanidino)FVPWF[KKFle]RIL] (H-[Phe(4-guanidino)]VPWFKKF[dL][dE]RIL-NH2; lactam 6-10)	%	33

###

Format: cell-based, human
STUDY CONDITIONS: human, Cell viability (%)
Bridge positions count the residues as written; N and C are the ends. Square brackets hold non-standard residues; d marks the D form. Peptide text beside a SMILES is read from it.

COMPOUND	viability at 24 h, 25 µM (%)
CC[C@H](C)[C@H](NC(=O)[C@H](CCCNC(=N)N)NC(=O)[C@@H]1CCCNC(=N)NCCC[C@H](NC(=O)[C@H](Cc2ccccc2)NC(=O)[C@H](Cc2c[nH]c3ccccc23)NC(=O)[C@@H]2CCCN2C(=O)[C@@H](NC(=O)[C@@H](N)Cc2ccccc2)C(C)C)C(=O)N[C@@H](CCCCN)C(=O)N[C@@H](Cc2ccccc2)C(=O)N[C@H](CC(C)C)C(=O)N1)C(=O)N[C@@H](CC(C)C)C(N)=O [Peptide 13, FVPWF{OrnKFlOrn}RIL]	22
CC[C@H](C)[C@H](NC(=O)[C@H](CCCNC(=N)N)NC(=O)[C@H]1CCC(=O)NCCCC[C@H](NC(=O)[C@H](Cc2ccccc2)NC(=O)[C@H](Cc2c[nH]c3ccccc23)NC(=O)[C@@H]2CCCN2C(=O)[C@@H](NC(=O)[C@@H](N)Cc2ccccc2)C(C)C)C(=O)N[C@@H](CCCNC(=N)N)C(=O)N[C@@H](Cc2ccccc2)C(=O)N[C@H](CC(C)C)C(=O)N1)C(=O)N[C@@H](CC(C)C)C(N)=O [Peptide 9, FVPWF[KRFle]RIL] (H-FVPWFKRF[dL][dE]RIL-NH2; lactam 6-10)	120

###

System: A. baumannii ATCC 19606
ASSAY: microbe, parasite or virus in culture
Type: cell-based
STUDY CONDITIONS: ATCC 19606
Bridge positions count the residues as written; N and C are the ends. Square brackets hold non-standard residues; d marks the D form. Peptide text beside a SMILES is read from it. * marks the point of attachment. Propanoyl(3-guanidino) = N=C(N)NCCC(=O)*

MOLECULE	MIC [µM]
CC[C@H](C)[C@H](NC(=O)[C@H](CCCNC(=N)N)NC(=O)[C@H]1CCC(=O)NCCCC[C@H](NC(=O)[C@H](Cc2ccccc2)NC(=O)[C@H](Cc2c[nH]c3ccccc23)NC(=O)[C@@H]2CCCN2C(=O)[C@@H](NC(=O)[C@@H](N)Cc2ccccc2)C(C)C)C(=O)N[C@@H](CCCCN)C(=O)N[C@@H](Cc2ccccc2)C(=O)N[C@H](CC(C)C)C(=O)N1)C(=O)N[C@@H](CC(C)C)C(N)=O [Peptide 2, FVPWF[KKFle]RIL] (H-FVPWFKKF[dL][dE]RIL-NH2; lactam 6-10)	6.25
CC[C@H](C)[C@H](NC(=O)[C@H](CCCNC(=N)N)NC(=O)[C@H]1CCC(=O)NCCCC[C@H](NC(=O)[C@H](Cc2ccccc2)NC(=O)[C@H](Cc2c[nH]c3ccccc23)NC(=O)[C@@H]2CCCN2C(=O)[C@@H](NC(=O)[C@@H](N)Cc2ccccc2)C(C)C)C(=O)N[C@@H](CCCNC(=N)N)C(=O)N[C@@H](Cc2ccccc2)C(=O)N[C@H](CC(C)C)C(=O)N1)C(=O)N[C@@H](CC(C)C)C(N)=O [Peptide 9, FVPWF[KRFle]RIL] (H-FVPWFKRF[dL][dE]RIL-NH2; lactam 6-10)	3.12
CC[C@H](C)[C@H](NC(=O)[C@H](CCCNC(=N)N)NC(=O)[C@H]1CCCCNC(=N)NCCCC[C@H](NC(=O)[C@H](Cc2ccccc2)NC(=O)[C@H](Cc2c[nH]c3ccccc23)NC(=O)[C@@H]2CCCN2C(=O)[C@@H](NC(=O)[C@@H](N)Cc2ccccc2)C(C)C)C(=O)N[C@@H](CCCCN)C(=O)N[C@@H](Cc2ccccc2)C(=O)N[C@H](CC(C)C)C(=O)N1)C(=O)N[C@@H](CC(C)C)C(N)=O [Peptide 12, FVPWF{KKFlk}RIL]	1.56
CC[C@H](C)[C@H](NC(=O)[C@H](CCCNC(=N)N)NC(=O)[C@H]1CCC(=O)NCCCC[C@H](NC(=O)[C@H](Cc2ccccc2)NC(=O)[C@H](Cc2c[nH]c3ccccc23)NC(=O)[C@@H]2CCCN2C(=O)[C@@H](NC(=O)[C@H](Cc2ccccc2)NC(=O)CCNC(=N)N)C(C)C)C(=O)N[C@@H](CCCCN)C(=O)N[C@@H](Cc2ccccc2)C(=O)N[C@H](CC(C)C)C(=O)N1)C(=O)N[C@@H](CC(C)C)C(N)=O [Peptide 4, guanidino-βAla-FVPWF[KKFle]RIL] ({Propanoyl(3-guanidino)}-FVPWFKKF[dL][dE]RIL-NH2; lactam 6-10)	3.12

###

Listed here: items and their measured viability at 24 h, 25 µM.
Format: cell-based, human
STUDY CONDITIONS: human, Cell viability (%)
Bridge positions count the residues as written; N and C are the ends. Square brackets hold non-standard residues; d marks the D form. Peptide text beside a SMILES is read from it. * marks the point of attachment. Phe(4-guanidino) = N=C(N)Nc1ccc(C[C@H](N)C(=O)O)cc1; Butanoyl(4-guanidino) = N=C(N)NCCCC(=O)*

COMPOUND	UNIT LABEL	viability at 24 h, 25 µM
CC[C@H](C)[C@H](NC(=O)[C@H](CCCNC(=N)N)NC(=O)[C@H]1CCC(=O)NCCCC[C@H](NC(=O)[C@H](Cc2ccccc2)NC(=O)[C@H](Cc2c[nH]c3ccccc23)NC(=O)[C@@H]2CCCN2C(=O)[C@@H](NC(=O)[C@H](Cc2ccccc2)NC(=O)CCCNC(=N)N)C(C)C)C(=O)N[C@@H](CCCCN)C(=O)N[C@@H](Cc2ccccc2)C(=O)N[C@H](CC(C)C)C(=O)N1)C(=O)N[C@@H](CC(C)C)C(N)=O [Peptide 5, guanidino-GABA-FVPWF[KKFle]RIL] ({Butanoyl(4-guanidino)}-FVPWFKKF[dL][dE]RIL-NH2; lactam 6-10)	%	58
CC[C@H](C)[C@H](NC(=O)[C@H](CCCNC(=N)N)NC(=O)[C@H]1CCC(=O)NCCCC[C@H](NC(=O)[C@H](Cc2ccccc2)NC(=O)[C@H](Cc2c[nH]c3ccccc23)NC(=O)[C@@H]2CCCN2C(=O)[C@@H](NC(=O)[C@@H](N)Cc2ccc(NC(=N)N)cc2)C(C)C)C(=O)N[C@@H](CCCCN)C(=O)N[C@@H](Cc2ccccc2)C(=O)N[C@H](CC(C)C)C(=O)N1)C(=O)N[C@@H](CC(C)C)C(N)=O [Peptide 6, (p-guanidino)FVPWF[KKFle]RIL] (H-[Phe(4-guanidino)]VPWFKKF[dL][dE]RIL-NH2; lactam 6-10)	%	86

Data origin: paper PMC12703733
